# Tested on: MCC26
# TEST DESCRIPTION: Cell survival by CellTiterGlo, VN-MCC line MCC26
# Format: cell-based
# TEST PARAMETERS: area under the dose-response curve
Please note: AUC (arbitrary units) MCC26 exactly at 500 arbitrary units is False. Only values below 500 arbitrary units get True.

{"MOLECULE": "O=C(O)CNC1C2C(=O)C=C3SC4CC31C1=C(N4)C(=O)c3[nH]cc4c3C1=[N+]2CC4 (single isomer, unassigned; (-))", "DISCRETE LABEL": "False"}
{"MOLECULE": "O=C1C(Br)=CC2(C=C1Br)CCNC1=C2C2=NCCc3c(Br)[nH]c(c32)C1=O", "DISCRETE LABEL": "True"}
{"MOLECULE": "O=C1C=C2S[C@H]3C[C@]2(C=C1Br)C1=C(N3)C(=O)c2[nH]cc3ccnc1c23 [Compound 3, (+)-(6S,8S) discorhabdin Q]", "DISCRETE LABEL": "True"}
{"MOLECULE": "O=C1C(Br)=CC2(C=CNC3=C2C2=NCCc4c[nH]c(c42)C3=O)C=C1Br [Compound 20, 7,8-dehydrodiscorhabdin C]", "DISCRETE LABEL": "False"}
{"MOLECULE": "O=C1C2=C(C3=NCCc4c[nH]c1c43)C1(C=C(Br)C(O)C(Br)=C1)CCN2 (stereo not drawn) [Compound 16, 3-dihydrodiscorhabdin C]", "DISCRETE LABEL": "False"}
{"MOLECULE": "CSC1=CC(=O)C(Br)=C[C@]12C=CNC1=C2C2=NCCc3c[nH]c(c32)C1=O [Compound 8, (+)-(6S) N-13-demethyldiscorhabdin U]", "DISCRETE LABEL": "True"}

###

increased activity against VP-MCC compared to the control listing for selected compounds.
# System: VP-MCC cell lines (MKL-1, MKL-2, and Waga)
# TEST DESCRIPTION: Selectivity VP-MCC versus control cells (average AUC)
# Format: cell-based
PROPERTY: increased activity against VP-MCC compared to the control

{"COMPOUND": "Cc1[nH]c2c3c1CCN=C3C1=C(NCCC13C=C(Br)C(=O)C(Br)=C3)C2=O", "TESTED ON": "VP-MCC cell lines (MKL-1, MKL-2, and Waga)", "MEASURED": "> 10 fold"}
{"COMPOUND": "Cn1cc2c3c1C(=O)C1=C(C3=NCC2)C2(C=C(Br)C(=O)C(Br)=C2)CCN1", "TESTED ON": "VP-MCC cell lines (MKL-1, MKL-2, and Waga)", "MEASURED": "> 10 fold"}
{"COMPOUND": "O=C1C=C[C@]2(C=C1Br)CCNC1=C2C2=NCCc3c[nH]c(c32)C1=O [Compound 22, (+)-(6S)-discorhabdin E]", "TESTED ON": "VP-MCC cell lines (MKL-1, MKL-2, and Waga)", "MEASURED": "> 10 fold"}
{"COMPOUND": "O=C1C=C2S[C@H]3C[C@]2(C=C1Br)C1=C(N3)C(=O)c2[nH]cc3c2C1=NCC3 [Compound 2, (+)-(6S,8S) discorhabdin B]", "TESTED ON": "VP-MCC cell lines (MKL-1, MKL-2, and Waga)", "MEASURED": "> 10 fold"}

###

# System: MKL-1
# TEST DESCRIPTION: Cell survival by CellTiterGlo, VP-MCC line MKL-1
# Format: cell-based
# TEST PARAMETERS: area under the dose-response curve; VP-MCC

{"COMPOUND": "Cn1cnc(SC2=CC(=O)C=C3S[C@H]4C[C@@]23C2=C(N4)C(=O)c3[nH]cc4c3C2=NCC4)c1C[C@H](N)C(=O)O (relative stereo) [Compound 5, (+)-(6S,8S,7′S*) discorhabdin K]", "TESTED ON": "MKL-1", "AUC (arbitrary units) MKL-1": 335}
{"COMPOUND": "O=C1C=C[C@@]23C[C@@H](NC4=C2C2=NCCc5c[nH]c(c52)C4=O)SC3=C1 [Compound 4, (+)-(6S,8S) discorhabdin G*/I]", "TESTED ON": "MKL-1", "AUC (arbitrary units) MKL-1": 54.17}
{"COMPOUND": "O=C1C=C2SC3CC2(C=C1Br)C1=C(N3)C(=O)c2[nH]cc3c2C1=NCC3 (single isomer, unassigned; (-)) [(-)B]", "TESTED ON": "MKL-1", "AUC (arbitrary units) MKL-1": 1.929}
{"COMPOUND": "O=C1C=C2S[C@H]3C[C@]2(C=C1Br)C1=C(N3)C(=O)c2[nH]cc3c2C1=NCC3 [Compound 2, (+)-(6S,8S) discorhabdin B]", "TESTED ON": "MKL-1", "AUC (arbitrary units) MKL-1": 3.635}
{"COMPOUND": "Cn1cnc(S[C@H]2[C@H]3C(=O)C=C4S[C@H]5C[C@]42C2=C(N5)C(=O)c4[nH]cc5c4C2=[N+]3CC5)c1C[C@H](N)C(=O)O (relative stereo) [Compound 14, (−)-(1R,2R,6R,8S,7′S*) discorhabdin H]", "TESTED ON": "MKL-1", "AUC (arbitrary units) MKL-1": 901.7}

###

# Tested on: Waga
# TEST DESCRIPTION: Cell survival by CellTiterGlo, VP-MCC line Waga
# Assay type: cell-based
# TEST PARAMETERS: CellTiterGlo, normalized to DMSO
IC50 listing for selected compounds.

{"COMPOUND": "O=C1C=C2S[C@H]3C[C@]2(C=C1Br)C1=C(N3)C(=O)c2[nH]cc3ccnc1c23 [Compound 3, (+)-(6S,8S) discorhabdin Q]", "UNIT ABBREVIATION": "nM", "IC50": 3290}
{"COMPOUND": "O=C1C(Br)=CC2(C=C1Br)CCNC1=C2C2=NCCc3c(Br)[nH]c(c32)C1=O", "UNIT ABBREVIATION": "nM", "IC50": 249}
{"COMPOUND": "O=C1C=C[C@@]23C[C@@H](NC4=C2C2=NCCc5c[nH]c(c52)C4=O)SC3=C1 [Compound 4, (+)-(6S,8S) discorhabdin G*/I]", "UNIT ABBREVIATION": "nM", "IC50": 859}
{"COMPOUND": "O=C1C=C2S[C@H]3C[C@]2(C=C1Br)C1=C(N3)C(=O)c2[nH]cc3c2C1=NCC3 [Compound 2, (+)-(6S,8S) discorhabdin B]", "UNIT ABBREVIATION": "nM", "IC50": 75}
{"COMPOUND": "O=C1C=C(SSC2=CC(=O)C(Br)=C[C@]23C=CNC2=C3C3=NCCc4c[nH]c(c43)C2=O)[C@@]2(C=CNC3=C2C2=NCCc4c[nH]c(c42)C3=O)C=C1Br [Compound 10, (−)-(6S,6′S) discorhabdin W]", "UNIT ABBREVIATION": "nM", "IC50": 307}
{"COMPOUND": "Cc1[nH]c2c3c1CCN=C3C1=C(NCCC13C=C(Br)C(=O)C(Br)=C3)C2=O", "UNIT ABBREVIATION": "nM", "IC50": 430}

###

# Test system: Waga
# TEST DESCRIPTION: Cell survival by CellTiterGlo, VP-MCC line Waga
# Type: cell-based
# TEST PARAMETERS: CellTiterGlo, normalized to DMSO

{"COMPOUND": "Cn1cc2c3c1C(=O)C1=C(C3=NCC2)[C@]2(C=CC(=O)C(Br)=C2)CCN1 [Compound 23, (+)-(6S)-N-13-methyldiscorhabdin E]", "IC50, nM": 546}
{"COMPOUND": "O=C1C2=C3C4=[N+](CCc5c[nH]c1c54)[C@@H]1C(=O)C=C4S[C@@H](C[C@@]43[C@H]1O)N2 [Compound 12, (−)-(1R,2S,6R,8S) discorhabdin L]", "IC50, nM": 440}
{"COMPOUND": "O=C(O)CNC1C2C(=O)C=C3SC4CC31C1=C(N4)C(=O)c3[nH]cc4c3C1=[N+]2CC4 (single isomer, unassigned; (-))", "IC50, nM": 1560}

###

# System: Waga
# TEST DESCRIPTION: Cell survival by CellTiterGlo, VP-MCC line Waga
# Type: cell-based
# TEST PARAMETERS: CellTiterGlo, normalized to DMSO
PROPERTY: IC50 (nM)

{"COMPOUND": "Cn1cc2c3c1C(=O)C1=C(C3=NCC2)C2(C=C(Br)C(=O)C(Br)=C2)CCN1", "MEASURED": 106}
{"COMPOUND": "CSC1=CC(=O)C(Br)=C[C@]12C=CNC1=C2C2=NCCc3c[nH]c(c32)C1=O [Compound 8, (+)-(6S) N-13-demethyldiscorhabdin U]", "MEASURED": 86.9}
{"COMPOUND": "O=C1C2=C(C3=NCCc4c[nH]c1c43)c1c(cc(Br)c(O)c1Br)CCN2", "MEASURED": 5460}
{"COMPOUND": "CSC1=CC(=O)C=C2S[C@H]3C[C@@]12C1=C(N3)C(=O)c2[nH]cc3c2C1=NCC3 [Compound 7, (+)-(6R,8S) thiomethyldiscorhabdin G*/I]", "MEASURED": 2990}
